Origin of the recorded values: ChEMBL document CHEMBL2346512

What inhibition at 25 µM was measured for each of the following?
system: RAW264.7; test: Inhibition of LPS-induced NO production in mouse RAW264.7 cells at 25 uM pretreated for 20 mins before LPS challenge measured after 18 hrs post LPS challenge by spectrophotometry; format: functional
Answers are plain numbers, in %.

Reference set (3 entries):
[
  {
    "mol": "CCCCOCCOC(=O)[C@H]1[C@H](c2ccc(O)cc2)[C@H](C(=O)OCCOCCCC)[C@H]1c1ccc(O)cc1",
    "recorded result": 45.8
  },
  {
    "mol": "O=C(OCCI)[C@H]1[C@H](c2ccc(O)cc2)[C@H](C(=O)OCCI)[C@H]1c1ccc(O)cc1",
    "recorded result": 49.9
  },
  {
    "mol": "CSCCOC(=O)[C@H]1[C@H](c2ccc(O)cc2)[C@H](C(=O)OCCSC)[C@H]1c1ccc(O)cc1",
    "recorded result": 24.4
  }
]

Let us examine a further case.
Problem: Requested read-out inhibition at 25 µM, target or system RAW264.7, entry C#CCCOC(=O)[C@H]1[C@H](c2ccc(O)cc2)[C@H](C(=O)OCCC#C)[C@H]1c1ccc(O)cc1
Result: 28.3

---

Task for the reader: assign each of the following compounds its reported viability at 18 h, 25 µM.
assay: Cytotoxicity against mouse RAW264.7 cells assessed as cell viability at 25 uM after 18 hrs by CCK-8 assay; type: cell-based; conditions: read-out: Activity
Quick note: number first, unit second.

The cases that follow already have their viability at 18 h, 25 µM on record.
[
  {
    "compound": "CC(C)=CCC/C(C)=C/COC(=O)[C@H]1[C@H](c2ccc(O)cc2)[C@H](C(=O)OC/C=C(\\C)CCC=C(C)C)[C@H]1c1ccc(O)cc1",
    "viability at 18 h, 25 µM": "80%"
  },
  {
    "compound": "CC(C)[C@@H]1CC[C@@H](C)C[C@H]1OC(=O)[C@H]1[C@H](c2ccc(O)cc2)[C@H](C(=O)O[C@@H]2C[C@H](C)CC[C@H]2C(C)C)[C@H]1c1ccc(O)cc1",
    "viability at 18 h, 25 µM": "98%"
  },
  {
    "compound": "O=C(OC1CCCC1)[C@H]1[C@H](c2ccc(O)cc2)[C@H](C(=O)OC2CCCC2)[C@H]1c1ccc(O)cc1",
    "viability at 18 h, 25 µM": "58%"
  }
]

# batch: return viability at 18 h, 25 µM for each of the 7 compounds below
1. CCCOCCOC(=O)[C@H]1[C@H](c2ccc(O)cc2)[C@H](C(=O)OCCOCCC)[C@H]1c1ccc(O)cc1
2. O=C(OCC12CC3CC(CC(C3)C1)C2)[C@H]1[C@H](c2ccc(O)cc2)[C@H](C(=O)OCC23CC4CC(CC(C4)C2)C3)[C@H]1c1ccc(O)cc1
3. O=C(OCC1CCCO1)[C@H]1[C@H](c2ccc(O)cc2)[C@H](C(=O)OCC2CCCO2)[C@H]1c1ccc(O)cc1 (stereo not given in full)
4. COCCOCCOCCOC(=O)[C@H]1[C@H](c2ccc(O)cc2)[C@H](C(=O)OCCOCCOCCOC)[C@H]1c1ccc(O)cc1
5. O=C(OCC(F)(F)F)[C@H]1[C@H](c2ccc(O)cc2)[C@H](C(=O)OCC(F)(F)F)[C@H]1c1ccc(O)cc1
6. CC(C)OCCOC(=O)[C@H]1[C@H](c2ccc(O)cc2)[C@H](C(=O)OCCOC(C)C)[C@H]1c1ccc(O)cc1
7. O=C(OC(C(F)(F)F)C(F)(F)F)[C@H]1[C@H](c2ccc(O)cc2)[C@H](C(=O)OC(C(F)(F)F)C(F)(F)F)[C@H]1c1ccc(O)cc1

Result:
100%
98%
96%
100%
78%
100%
32.6%

Dear reader, for each entry below, please note its viability at 18 h, 25 µM.
1. O=C(OC1CCCCC1)[C@H]1[C@H](c2ccc(O)cc2)[C@H](C(=O)OC2CCCCC2)[C@H]1c1ccc(O)cc1
2. O=C(OCCF)[C@H]1[C@H](c2ccc(O)cc2)[C@H](C(=O)OCCF)[C@H]1c1ccc(O)cc1
3. O=C(OCC1CC1)[C@H]1[C@H](c2ccc(O)cc2)[C@H](C(=O)OCC2CC2)[C@H]1c1ccc(O)cc1
4. CCC/C=C/COC(=O)[C@H]1[C@H](c2ccc(O)cc2)[C@H](C(=O)OC/C=C/CCC)[C@H]1c1ccc(O)cc1
5. O=C(OCC1CCCCC1)[C@H]1[C@H](c2ccc(O)cc2)[C@H](C(=O)OCC2CCCCC2)[C@H]1c1ccc(O)cc1

Result:
67.8%
100%
95%
40%
37%

---

system: RAW264.7; assay: Inhibition of LPS-induced NO production in mouse RAW264.7 cells at 25 uM pretreated for 20 mins before LPS challenge measured after 18 hrs post LPS challenge by spectrophotometry; format: functional
Returns 1 (yes) if the recorded inhibition at 25 µM is greater than or equal to 50%, and 0 (no) otherwise.

[
  {
    "compound": "O=C(OC1CCC1)[C@H]1[C@H](c2ccc(O)cc2)[C@H](C(=O)OC2CCC2)[C@H]1c1ccc(O)cc1",
    "group": "1 (yes)"
  },
  {
    "compound": "C#CCOCCOC(=O)[C@H]1[C@H](c2ccc(O)cc2)[C@H](C(=O)OCCOCC#C)[C@H]1c1ccc(O)cc1",
    "group": "0 (no)"
  },
  {
    "compound": "CC(C)=CCC/C(C)=C/COC(=O)[C@H]1[C@H](c2ccc(O)cc2)[C@H](C(=O)OC/C=C(\\C)CCC=C(C)C)[C@H]1c1ccc(O)cc1",
    "group": "0 (no)"
  },
  {
    "compound": "O=C(OC1CCOCC1)[C@H]1[C@H](c2ccc(O)cc2)[C@H](C(=O)OC2CCOCC2)[C@H]1c1ccc(O)cc1",
    "group": "0 (no)"
  },
  {
    "compound": "CC(C)[C@H]1CC[C@H](C)C[C@@H]1OC(=O)[C@H]1[C@H](c2ccc(O)cc2)[C@H](C(=O)O[C@H]2C[C@@H](C)CC[C@@H]2C(C)C)[C@H]1c1ccc(O)cc1",
    "group": "0 (no)"
  }
]

Problem: Check the entry C=C(C)COC(=O)[C@H]1[C@H](c2ccc(O)cc2)[C@H](C(=O)OCC(=C)C)[C@H]1c1ccc(O)cc1 : does inhibition at 25 µM equal or exceed 50%?
Result: 0 (no)

Problem: Proceed to O=C(OCC1CCCCC1)[C@H]1[C@H](c2ccc(O)cc2)[C@H](C(=O)OCC2CCCCC2)[C@H]1c1ccc(O)cc1
Result: 0 (no)

Problem: Item: O=C(OC1CCCCC1)[C@H]1[C@H](c2ccc(O)cc2)[C@H](C(=O)OC2CCCCC2)[C@H]1c1ccc(O)cc1
Result: 1 (yes)

Problem: Same again, this time with O=C(OC1CCCC1)[C@H]1[C@H](c2ccc(O)cc2)[C@H](C(=O)OC2CCCC2)[C@H]1c1ccc(O)cc1
Result: 1 (yes)

Problem: What about this compound? CC(C)(C)C1CCC(OC(=O)[C@H]2[C@H](c3ccc(O)cc3)[C@H](C(=O)OC3CCC(C(C)(C)C)CC3)[C@H]2c2ccc(O)cc2)CC1 (some centres not stated)
Result: 0 (no)

---

test system: RAW264.7; assay: Inhibition of LPS-induced NO production in mouse RAW264.7 cells pretreated for 20 mins before LPS challenge measured after 18 hrs post LPS challenge by spectrophotometry; assay type: functional, cell-based
measured metric: pIC50
Answers are plain numbers, as −log10 of the molar value.

Before answering, review these 3 worked examples.
[
  {
    "mol": "N=C(N)NN",
    "measured metric": "pIC50",
    "recorded result": 4.73
  },
  {
    "mol": "O=C(OC1CCC1)[C@H]1[C@H](c2ccc(O)cc2)[C@H](C(=O)OC2CCC2)[C@H]1c1ccc(O)cc1",
    "measured metric": "pIC50",
    "recorded result": 4.70
  },
  {
    "mol": "O=C(OCC1CCCCC1)[C@H]1[C@H](c2ccc(O)cc2)[C@H](C(=O)OCC2CCCCC2)[C@H]1c1ccc(O)cc1",
    "measured metric": "pIC50",
    "recorded result": 4.54
  }
]

Problem: Please report the recorded pIC50 for CCC/C=C/COC(=O)[C@H]1[C@H](c2ccc(O)cc2)[C@H](C(=O)OC/C=C/CCC)[C@H]1c1ccc(O)cc1 .
Result: 4.75

---

tested on: RAW264.7; assay: Inhibition of LPS-induced NO production in mouse RAW264.7 cells at 25 uM pretreated for 20 mins before LPS challenge measured after 18 hrs post LPS challenge by spectrophotometry; type: functional
Decision: inhibition at 25 µM >= 10% yields T, all other cases yield F.

Reference set, count: 5
[
  {
    "mol": "CCC[C@H]1CC[C@H]([C@H]2CC[C@@H](OC(=O)[C@H]3[C@H](c4ccc(O)cc4)[C@H](C(=O)O[C@H]4CC[C@@H]([C@H]5CC[C@H](CCC)CC5)CC4)[C@H]3c3ccc(O)cc3)CC2)CC1",
    "group": "F"
  },
  {
    "mol": "CC(C)[C@@H]1CC[C@@H](C)C[C@H]1OC(=O)[C@H]1[C@H](c2ccc(O)cc2)[C@H](C(=O)O[C@@H]2C[C@H](C)CC[C@H]2C(C)C)[C@H]1c1ccc(O)cc1",
    "group": "T"
  },
  {
    "mol": "N=C(N)NN",
    "group": "T"
  },
  {
    "mol": "CC(C)(C)[Si](C)(C)Oc1ccc(/C=C/C(=O)O)cc1",
    "group": "F"
  },
  {
    "mol": "O=C(OCCF)[C@H]1[C@H](c2ccc(O)cc2)[C@H](C(=O)OCCF)[C@H]1c1ccc(O)cc1",
    "group": "T"
  }
]

Problem: Is inhibition at 25 µM for O=C(OC(C(F)(F)F)C(F)(F)F)[C@H]1[C@H](c2ccc(O)cc2)[C@H](C(=O)OC(C(F)(F)F)C(F)(F)F)[C@H]1c1ccc(O)cc1 at or above 10%?
Result: T
